- Test system: Pol-I specific transcription (human rRNA gene promoter)
- assay_info: In vitro Pol-I specific (promoter-driven) transcription assay, HeLa nuclear extract, S1 nuclease protection
- Assay type: biochemical
- assay_conditions: 1 µL HeLa nuclear extract, 100 ng plasmid DNA containing rRNA promoter, triplicates
pIC50: −log10 of the molar value.
Quick reference for pIC50 among some compounds

{"compound": "CN(C)c1ccc2cc3ccc(N(C)C)cc3nc2c1", "pIC50": 5.81}
{"compound": "N=C(N)c1ccc(-c2cc3ccc(C(=N)N)cc3[nH]2)cc1", "pIC50": 6.18}
{"compound": "CN(C)c1ccc(C(=C2C=CC(=[N+](C)C)C=C2)c2ccc([N+](C)(C)C)cc2)cc1", "pIC50": 2.28}
{"compound": "CC[n+]1c(-c2ccccc2)c2cc(N)ccc2c2ccc(N)cc21 [Ethidium bromide, ethidium bromide]", "pIC50": 7.21}

* * *

- Test system: Pol-I transcription (rRNA synthesis) in HCT116 p53−/− cells
- assay_info: IC50 of Pol-I transcription (rRNA synthesis) in cells
- Assay type: cell-based, human
- assay_conditions: Homo sapiens, HCT-116; p53 null HCT116 cells, triplicates; total RNA analyzed by S1 nuclease protection assay; read-out: IC50 (rRNA Synthesis)
- Description: Cells were grown until 70% confluent and then treated with compounds for 30 min. […] RNA was purified using the RNeasy purification kit (Qiagen) following the manufacturer’s instructions and the RNA concentration was determined spectroscopically. […] Then 47/45S pre-rRNA levels were analyzed on the LighCycler 480 thermocycler (Roche) using primers and conditions described previously. […]
pIC50: −log10 of the molar value.
Items are presented alongside their recorded pIC50.
measured_quantity: pIC50

{"compound": "Nc1ccc2cc3ccc(N)cc3nc2c1", "measured_number": 6.32}
{"compound": "CN(C)c1ccc(C(=C2C=CC(=[N+](C)C)C=C2)c2ccc(N(C)C)cc2)cc1", "measured_number": 5.31}
{"compound": "CC[n+]1c(-c2ccccc2)c2cc(N)ccc2c2ccc(N)cc21 [Ethidium bromide, ethidium bromide]", "measured_number": 5.04}

* * *

- Test system: Pol-I specific transcription (human rRNA gene promoter)
- assay_info: In vitro Pol-I specific (promoter-driven) transcription assay, HeLa nuclear extract, S1 nuclease protection
- Format: biochemical
- assay_conditions: 1 µL HeLa nuclear extract, 100 ng plasmid DNA containing rRNA promoter, triplicates
pIC50: −log10 of the molar value.
measured_quantity: pIC50

{"molecule": "CN1CCN(c2ccc3[nH]c(-c4ccc5[nH]c(-c6ccc(O)cc6)nc5c4)nc3c2)CC1 [Hoescht 33258, bisBenzamide (Hoechst 33258)]", "measured_quantity": "pIC50", "measured_number": 6.18}
{"molecule": "Nc1ccc2nc3ccc(N)cc3[s+]c2c1", "measured_quantity": "pIC50", "measured_number": 5.33}
{"molecule": "CN(C)c1ccc(C(=C2C=CC(=[N+](C)C)C=C2)c2ccc(N(C)C)cc2)cc1", "measured_quantity": "pIC50", "measured_number": 4.46}
{"molecule": "CC[N+](C)(CC)CCC[n+]1c(-c2ccccc2)c2cc(N)ccc2c2ccc(N)cc21 [Propidium Iodide, propidium iodide]", "measured_quantity": "pIC50", "measured_number": 6.15}
{"molecule": "Nc1ccc2cc3ccc(N)cc3nc2c1", "measured_quantity": "pIC50", "measured_number": 6.46}
{"molecule": "Cc1c2ccncc2c(C)c2c1[nH]c1ccc(O)cc12 [9HE, 9-Hydroxyellipticine]", "measured_quantity": "pIC50", "measured_number": 6.38}
